protocolDetails: Safety index.
Type: toxicity
studyConditions: read-out: Safety index
Friendly reminder: selectivity ratio below 0.7 is y, at or above is n.

Observe how each entry below is paired with its result.
- smiles: "Cn1c([N+](=O)[O-])cnc1CO"
  group: "n"
- smiles: "Cn1c([N+](=O)[O-])cnc1COC(N)=O"
  group: "n"
- smiles: "CC(=O)Oc1cc(C(=O)OCCn2c([N+](=O)[O-])cnc2-c2ccc(F)cc2)cc(OC(C)=O)c1OC(C)=O"
  group: "y"
- smiles: "Cc1nc(-c2ccc(F)cc2)n(C)c1[N+](=O)[O-]"
  group: "y"

# input for lookup
Please let me know if "Cc1ncc([N+](=O)[O-])n1C" shows selectivity ratio below 0.7.
n
